Entry source: ChEMBL document CHEMBL1143821

Tested on: Escherichia coli
Assay: Antimicrobial activity against Escherichia coli MC4100 at 42 degC
Assay type: functional
Could you please mark condition met for values of MIC below 400 µg/mL and condition not met for values at or above it?

Please review the entries below; each comes with its answer.
1) CCCCCC/C=C\CCCCCCCC(=O)NCc1ccc(C(=O)N[C@H](C(=O)O)[C@@H](C)CC)cc1; condition not met
2) CCCCCCCCCCCCCCCCCC(=O)NCc1ccc(C(=O)N[C@H](C(=O)O)[C@@H](C)CC)cc1; condition not met
3) CCCCCCCCCCCCCCCC(=O)NCc1ccc(C(=O)N[C@H](C(=O)O)[C@@H](C)CC)cc1; condition met
4) CCCCCCCCCCCC(=O)NCc1ccc(C(=O)N[C@H](C(=O)O)[C@@H](C)CC)cc1; condition not met
5) CC/C=C/CC(=O)NCc1ccc(C(=O)N[C@H](C(=O)O)[C@@H](C)CC)cc1; condition met

Check if MIC falls below 400 µg/mL for "CCCCCCCCCCCCCC(=O)NCc1ccc(C(=O)N[C@H](C(=O)O)[C@@H](C)CC)cc1" .
condition met

Check if MIC falls below 400 µg/mL for "CC1(C)S[C@@H]2[C@H](NC(=O)[C@H](N)c3ccccc3)C(=O)N2[C@H]1C(=O)O" .
condition met

Check if MIC falls below 400 µg/mL for "CCCC/C=C\CCCCCCCC(=O)NCc1ccc(C(=O)N[C@H](C(=O)O)[C@@H](C)CC)cc1" .
condition not met

Check if MIC falls below 400 µg/mL for "CCCCCC(=O)NCc1ccc(C(=O)N[C@H](C(=O)O)[C@@H](C)CC)cc1" .
condition not met

----------
Test: Inhibition of secondary amide peptide bond cis/trans isomerase activity of Escherichia coli MC4100 DnaK assessed as RNase T1P39A refolding assay
measurement name: IC50 (µM)
One number for each entry, in µM.

Assign IC50 to the following record: "CCCCCCCCCCCCCC(=O)NCc1ccc(C(=O)N[C@H](C(=O)O)[C@@H](C)CC)cc1"
2.7

----------
For each entry below, report its EC50 value.
Test: Toxicity against human erythrocytes assessed as hemolytic activity
Type: cell-based, Erythrocyte

Recorded results for 3 compounds are shown here.
1. CCCCCCCCCCCCCC(=O)Nc1ccc(C(=O)N[C@H](C(=O)O)[C@@H](C)CC)cc1; > 10 µg/mL
2. CCCCCCCCCC(=O)NCc1ccc(C(=O)N[C@H](C(=O)O)[C@@H](C)CC)cc1; > 1000 µg/mL
3. CC/C=C/CC(=O)NCc1ccc(C(=O)N[C@H](C(=O)O)[C@@H](C)CC)cc1; > 1500 µg/mL

Field: EC50. Fill in for each record below.
1. CCCCCCCCCCCCCC(=O)NCc1ccc(C(=O)N[C@@H](CC(N)=O)C(=O)O)cc1
2. CCCCCCCCCCCCCC(=O)NCc1ccc(C(=O)NCC(=O)O)cc1

["> 10 µg/mL", "> 50 µg/mL"]

----------
Tested on: Escherichia coli
Experiment: Antimicrobial activity against Escherichia coli MC4100 at 42 degC
Type: functional
For each entry below, report its MIC value.

1. CCCCCCCCCCCCCC(=O)NCc1ccc(C(=O)NCC(=O)O)cc1; > 500 µg/mL
2. CCCCCCCCCCCCCC(=O)NCc1cccc(C(=O)N[C@H](C(=O)O)[C@@H](C)CC)c1; > 2000 µg/mL

Assign MIC to the following record: "CCCCCCCCCCCCCC(=O)Nc1ccc(C(=O)N[C@H](C(=O)O)[C@@H](C)CC)cc1"
> 60 µg/mL
